- Tested on: MRSA biofilm
- ASSAY TEXT: MRSA biofilm eradication assay
- Assay type: cell-based, methicillin-resistant Staphylococcus aureus
- SETUP CONDITIONS: Staphylococcus aureus, MRSA, 25 μg/mL; % (Std. Dev.), n = 6
Output schema: class label derived from inhibition at 25 µg/mL. Mapping: bottom = under 3%, middle = from 3% up to 20%, top = 20% and over

INSERT INTO measurements (compound, system_tested, classification) VALUES
  ('CC(=O)OC1OC(OC(C)=O)C2C1CCC(C1(C)CCCC(C)(C)C1)C21OC1C (stereo not shown)', 'MRSA biofilm', 'bottom'),
  ('CC(=O)OC1OC2OC(=O)C(C)C3=C(C4(C)CCCC(C)(C)C4)CCC1C32 (stereo not shown) [Tetrahydroaplysulphurin-1 (4), tetrahydroaplysulphurin-1]', 'MRSA biofilm', 'top'),
  ('COC(=O)C(C)c1c(C2(C)CCCC(C)(C)C2)ccc2c1C(O)OC2=O (stereo not shown)', 'MRSA biofilm', 'top'),
  ('CC(=O)O[C@@H]1O[C@H]2OC(=O)[C@H](C)c3c([C@@]4(C)CCCC(C)(C)C4)ccc1c32', 'MRSA biofilm', 'middle'),
  ('CC(=O)OC1OC(OC(C)=O)C2C(=O)C(C3(C)CCCC(C)(C)C3)CCC12 (stereo not shown) [8-Ketodihydrogracilin (13), 8-ketodihydrogracilin]', 'MRSA biofilm', 'middle'),
  ('C/C=C1/[C@@H]2[C@@H](OC(C)=O)O[C@@H](OC(C)=O)[C@@H]2CC[C@@H]1[C@@]1(C)CCCC(C)(C)C1 [9,11-Dihydrogracilin A (3), 9,11-dihydrogracilin A]', 'MRSA biofilm', 'bottom'),
  ('CC(=O)O[C@@H]1O[C@H](OC(C)=O)[C@@H]2[C@H]1CC[C@H](/C(C)=C1/CCCC1(C)C)C2(C)C', 'MRSA biofilm', 'middle'),
  ('C[C@@H](CO)c1c([C@@]2(C)CCCC(C)(C)C2)ccc(CO)c1CO', 'MRSA biofilm', 'bottom'),
  ('C[C@H]1C(=O)O[C@@H]2OC[C@@H]3CCC([C@@]4(C)CCCC(C)(C)C4)=C1[C@@H]32 [Cadlinolide C (8), cadlinolide C]', 'MRSA biofilm', 'bottom'),
  ('CCC1=C(C=O)[C@H](C(=O)OC)CC[C@@H]1[C@@]1(C)CCCC(C)(C)C1 (relative stereo)', 'MRSA biofilm', 'top'),
  ('CC(=O)O[C@@H]1OC2OC(=O)[C@H](C)C34OOC([C@@]5(C)CCCC(C)(C)C5)(CC[C@@H]1C23)O4 (stereo partly shown) [Ozonide (14), tetrahydroaplysulphurin ozonide]', 'MRSA biofilm', 'middle');

====

Reported IC50 values follow for various compounds
- ASSAY TEXT: J774A.1-cell cytotoxicity assay (uninfected macrophage)
- Type: cell-based
- SETUP CONDITIONS: mouse, J774A.1 macrophage cells (uninfected); Table 3; unit not given (μM in Table 2); read-out: J774 Cytotoxiciy
READOUT: IC50

INSERT INTO measurements (compound, measured_value) VALUES
  ('C[C@@H](CO)c1c([C@@]2(C)CCCC(C)(C)C2)ccc(CO)c1CO', '> 160 µM'),
  ('CCC1=C(C=O)[C@H](C(=O)OC)CC[C@@H]1[C@@]1(C)CCCC(C)(C)C1 (relative stereo)', '> 160 µM'),
  ('CC(=O)OC1OC(OC(C)=O)C2C(=O)C(C3(C)CCCC(C)(C)C3)CCC12 (stereo not shown) [8-Ketodihydrogracilin (13), 8-ketodihydrogracilin]', '22 µM'),
  ('COC(=O)C(C)c1c(C2(C)CCCC(C)(C)C2)ccc2c1C(O)OC2=O (stereo not shown)', '> 140 µM');
